- System: c-Src
- Test summary: phosphorylation enrichment, bacterial display (enrichment ratio); higher = better substrate or ligand; peptides without Tyr show the background;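 note: 11-residue human phosphosite peptides and single-mutation variants displayed on the E. coli surface, counted by deep sequencing, each peptide's frequency after selection divided by its frequency in the unselected input library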;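 note: frequency after pTyr selection over input frequency; kinase dosed for 20-30% of maximal phosphorylation in three min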
Kindly return t if reported phosphorylation enrichment is no lower than 0.5; return f if it is lower.

VMIYAYLLHRG [PTEN_Y138_C136Y] ... f
FKDGQYWIRGW [ACSF3_Y466_R471W] ... t
QLDQHYLLVPE [DDX49_Y223_R222H] ... t
PSQRCYVYYYS [PTEN_Y174_R173C] ... t
EKIANYKEGTY [CLRN1_Y171] ... f

QUERY: Check if phosphorylation enrichment >= 0.5 (inclusive). Item: GISDEYHVIRR [GCDH_Y398_H403R]
RESULT: t

----------
- Assay target: FGFR1 (UniProt P11362)
- Sequence (P11362 whole entry, looked up): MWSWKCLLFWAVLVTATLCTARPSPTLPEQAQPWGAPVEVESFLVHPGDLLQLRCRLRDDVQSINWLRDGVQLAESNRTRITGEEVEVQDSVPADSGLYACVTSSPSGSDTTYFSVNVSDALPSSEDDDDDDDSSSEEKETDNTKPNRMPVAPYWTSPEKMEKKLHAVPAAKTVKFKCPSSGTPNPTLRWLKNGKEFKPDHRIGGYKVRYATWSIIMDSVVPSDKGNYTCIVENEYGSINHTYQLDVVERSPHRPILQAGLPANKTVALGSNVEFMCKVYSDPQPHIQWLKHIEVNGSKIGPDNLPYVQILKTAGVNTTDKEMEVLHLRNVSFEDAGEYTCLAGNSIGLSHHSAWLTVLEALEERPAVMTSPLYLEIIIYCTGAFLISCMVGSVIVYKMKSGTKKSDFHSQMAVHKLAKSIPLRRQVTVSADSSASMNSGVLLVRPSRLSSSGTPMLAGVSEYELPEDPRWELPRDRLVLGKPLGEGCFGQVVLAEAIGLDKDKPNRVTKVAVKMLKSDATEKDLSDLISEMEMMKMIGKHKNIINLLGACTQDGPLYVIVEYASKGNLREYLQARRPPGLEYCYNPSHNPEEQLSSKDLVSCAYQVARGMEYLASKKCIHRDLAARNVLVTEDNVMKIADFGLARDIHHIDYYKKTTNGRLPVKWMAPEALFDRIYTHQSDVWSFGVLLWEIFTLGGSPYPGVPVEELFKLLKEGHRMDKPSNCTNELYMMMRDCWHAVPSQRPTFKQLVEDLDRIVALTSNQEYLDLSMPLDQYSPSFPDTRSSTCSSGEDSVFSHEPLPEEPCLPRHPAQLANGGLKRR
- Test summary: phosphorylation enrichment, bacterial display (enrichment ratio); higher = better substrate or ligand; peptides without Tyr show the background
Kindly return t if reported phosphorylation enrichment is no lower than 0.7; return f if it is lower.

RELGEYGLQAY [ALDH2_Y497] ... f
TNFCLYLRSLE [MTM1_Y71_R69C_YF] ... f
KLKRSYSSPDI [USP8_Y717] ... f
TGILLYGLASR [QARS1_Y57] ... f
NPSYNYEIVNQ [DYNC1H1_Y3379_R3384Q] ... f
QSAGQYSSQGL [TNNI3K_Y788] ... f
EPFKVYRIVPE [IRF8_Y110_YF] ... f
IKEFKYGIEEH [GJA1_Y137_K134E] ... f

QUERY: Check if phosphorylation enrichment >= 0.7 (inclusive). Item: LKVDVYGRSHK [FUT3_Y222]
RESULT: t

QUERY: Check if phosphorylation enrichment >= 0.7 (inclusive). Item: PVKDGYQMAQP [CSF1R_Y873_L868P]
RESULT: t

QUERY: Check if phosphorylation enrichment >= 0.7 (inclusive). Item: LVRPPYSYLAL [FOXI1_Y126_S129L]
RESULT: t

----------
- Tested on: c-Abl (mouse)
- Test summary: phosphorylation enrichment, bacterial display (enrichment ratio); higher = better substrate or ligand; peptides without Tyr show the background
Kindly return Satisfied if reported phosphorylation enrichment is no lower than 0.7; return Not satisfied if it is lower.

Past entries and their recorded results:
WNEVGYDDIGG [VCP_Y203_L198W] ... Satisfied
FMGVEYSSCDT [EPHA3_Y937_T933M] ... Satisfied
SGDDGYAKDAK [TENM4_Y1530] ... Not satisfied
FLKDVYVDSKD [NDUFAF4_Y69] ... Not satisfied
KDIENHIQDGK [RAD50_Y964_Y964H] ... Not satisfied
YSNVLYRPRGP [TMIGD2_Y197_A202P] ... Not satisfied

QUERY: Check if phosphorylation enrichment >= 0.7 (inclusive). Item: VPEANYTSDEE [STK33_Y439_D436E]
RESULT: Satisfied

QUERY: Check if phosphorylation enrichment >= 0.7 (inclusive). Item: SVTCTYSPALK [TP53_Y126_N131K]
RESULT: Satisfied

----------
- Tested on: Fer (mouse)
- Test summary: phosphorylation enrichment, bacterial display (enrichment ratio); higher = better substrate or ligand; peptides without Tyr show the background
Could you please classify the records by phosphorylation enrichment using these ranges: lo = under 0.5, mid = from 0.5 up to 0.6, hi = 0.6 and over

Past entries and their recorded results:
NREGVYTDFAP [TGFBI_Y537_V539D] ... hi
LEAVSYSSRFA [RNLS_Y190_YF] ... lo
GFEVVYVTEPI [HSP90AB1_Y512_M513V] ... lo
TKLKDYFIFNK [CCDC42_Y149_A144T_YF] ... lo
TKYVAYIESQG [KDM4B_Y34_N29T] ... lo
GTTIHYNYMCN [TP53_Y234_C229G] ... hi

QUERY: Each sequence maps to one class by phosphorylation enrichment. Which class for PHMQTYEVDHN [SDHB_Y61_L65H] ?
RESULT: mid

QUERY: Each sequence maps to one class by phosphorylation enrichment. Which class for FSGDFYRIQGR [DDR2_Y741_YF] ?
RESULT: lo

QUERY: Each sequence maps to one class by phosphorylation enrichment. Which class for DISEPYEVFRI [IRF8_Y107_K108E_YF] ?
RESULT: hi

QUERY: Each sequence maps to one class by phosphorylation enrichment. Which class for SASSSYSRSRS [SRRM4_Y549_R547S] ?
RESULT: lo

QUERY: Each sequence maps to one class by phosphorylation enrichment. Which class for EALDFYGEVKT [PTEN_Y155_R159K] ?
RESULT: hi

QUERY: Each sequence maps to one class by phosphorylation enrichment. Which class for NTTIHYNYMCN [TP53_Y234_C229N] ?
RESULT: mid

QUERY: Each sequence maps to one class by phosphorylation enrichment. Which class for GKSDPYHATTG [GJA1_Y247_S251T] ?
RESULT: lo

----------
- Assay target: Fes (UniProt P07332)
- Sequence (P07332 whole entry, looked up): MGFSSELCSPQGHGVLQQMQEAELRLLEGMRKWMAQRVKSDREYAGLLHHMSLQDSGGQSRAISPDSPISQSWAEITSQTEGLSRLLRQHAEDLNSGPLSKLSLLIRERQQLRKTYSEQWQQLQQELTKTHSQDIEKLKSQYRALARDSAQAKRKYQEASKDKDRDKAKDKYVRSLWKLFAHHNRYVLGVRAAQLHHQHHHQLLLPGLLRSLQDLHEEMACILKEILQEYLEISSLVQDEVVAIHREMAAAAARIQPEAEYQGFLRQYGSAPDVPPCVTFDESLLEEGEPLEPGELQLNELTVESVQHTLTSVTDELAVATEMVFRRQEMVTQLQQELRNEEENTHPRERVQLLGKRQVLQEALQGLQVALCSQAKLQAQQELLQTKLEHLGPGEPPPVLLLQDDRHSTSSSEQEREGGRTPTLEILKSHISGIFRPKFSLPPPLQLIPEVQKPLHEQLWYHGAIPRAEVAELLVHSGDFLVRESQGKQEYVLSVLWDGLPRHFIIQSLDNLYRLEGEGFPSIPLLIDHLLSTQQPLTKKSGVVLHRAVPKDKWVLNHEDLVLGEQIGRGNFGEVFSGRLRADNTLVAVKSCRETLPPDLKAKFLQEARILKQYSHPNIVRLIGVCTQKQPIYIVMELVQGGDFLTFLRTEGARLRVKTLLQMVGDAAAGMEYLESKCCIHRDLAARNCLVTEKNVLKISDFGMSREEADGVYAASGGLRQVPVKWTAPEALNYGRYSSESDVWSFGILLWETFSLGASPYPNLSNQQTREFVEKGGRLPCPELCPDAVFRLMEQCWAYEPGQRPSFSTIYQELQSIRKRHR
- Test summary: phosphorylation enrichment, bacterial display (enrichment ratio); higher = better substrate or ligand; peptides without Tyr show the background
Kindly return MET if reported phosphorylation enrichment is no lower than 0.9; return NOT MET if it is lower.

GGGGSYNVFGN [HNRNPA1_Y312_D314V] ... NOT MET
VMIYAYLLHRG [PTEN_Y138_C136Y] ... NOT MET
GTQGSYLLSRK [UGT3A1_Y123_C121G] ... NOT MET
NTVDYYDLYGG [PTPN11_Y63_G60V] ... MET
TIQIMFGCDVG [HLA-A_Y123_Y123F] ... MET
RKIMGYSIRTI [IDS_Y490_I485R] ... NOT MET

// next entry
QUERY: Check if phosphorylation enrichment >= 0.9 (inclusive). Item: FAAAGYGSLEA [EPHA10_Y959]
RESULT: NOT MET

----------
- Assay target: FGFR3 (UniProt P22607)
- Sequence (P22607 whole entry, looked up): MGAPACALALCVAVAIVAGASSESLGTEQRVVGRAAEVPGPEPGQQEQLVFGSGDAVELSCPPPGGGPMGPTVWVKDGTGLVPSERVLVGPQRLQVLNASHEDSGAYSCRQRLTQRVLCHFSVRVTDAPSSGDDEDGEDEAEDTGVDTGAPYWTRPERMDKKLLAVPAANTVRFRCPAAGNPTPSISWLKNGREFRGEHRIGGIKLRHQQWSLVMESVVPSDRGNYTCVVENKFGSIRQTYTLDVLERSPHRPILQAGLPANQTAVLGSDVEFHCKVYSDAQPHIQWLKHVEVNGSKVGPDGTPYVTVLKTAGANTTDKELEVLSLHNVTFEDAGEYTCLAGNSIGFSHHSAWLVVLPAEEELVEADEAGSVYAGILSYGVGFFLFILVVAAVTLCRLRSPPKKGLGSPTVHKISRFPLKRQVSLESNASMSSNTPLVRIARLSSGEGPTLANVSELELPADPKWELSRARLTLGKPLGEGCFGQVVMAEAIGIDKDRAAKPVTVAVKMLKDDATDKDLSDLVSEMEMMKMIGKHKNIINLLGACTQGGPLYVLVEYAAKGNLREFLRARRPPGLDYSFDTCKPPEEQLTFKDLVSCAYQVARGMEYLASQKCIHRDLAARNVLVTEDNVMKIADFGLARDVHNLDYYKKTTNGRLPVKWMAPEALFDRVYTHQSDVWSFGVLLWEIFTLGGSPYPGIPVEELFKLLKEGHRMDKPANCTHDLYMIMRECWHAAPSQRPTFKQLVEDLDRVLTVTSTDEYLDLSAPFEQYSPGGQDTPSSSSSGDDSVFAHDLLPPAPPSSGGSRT
- Test summary: phosphorylation enrichment, bacterial display (enrichment ratio); higher = better substrate or ligand; peptides without Tyr show the background
The entries below come with measured phosphorylation enrichment values attached.
Write no unit; give the number alone.

TYGNLYGSRKQ [YIPF7_Y59_A54T] ... 0.467

Please look at the following sequence next.
QUERY: Entry LHVKMYNFLRS [ADGRG7_Y760_R756H] : reported phosphorylation enrichment = ?
RESULT: 0.94

----------
The entries below come with measured phosphorylation enrichment values attached.
- Assay target: Hck (UniProt P08631)
- Sequence (P08631 whole entry, looked up): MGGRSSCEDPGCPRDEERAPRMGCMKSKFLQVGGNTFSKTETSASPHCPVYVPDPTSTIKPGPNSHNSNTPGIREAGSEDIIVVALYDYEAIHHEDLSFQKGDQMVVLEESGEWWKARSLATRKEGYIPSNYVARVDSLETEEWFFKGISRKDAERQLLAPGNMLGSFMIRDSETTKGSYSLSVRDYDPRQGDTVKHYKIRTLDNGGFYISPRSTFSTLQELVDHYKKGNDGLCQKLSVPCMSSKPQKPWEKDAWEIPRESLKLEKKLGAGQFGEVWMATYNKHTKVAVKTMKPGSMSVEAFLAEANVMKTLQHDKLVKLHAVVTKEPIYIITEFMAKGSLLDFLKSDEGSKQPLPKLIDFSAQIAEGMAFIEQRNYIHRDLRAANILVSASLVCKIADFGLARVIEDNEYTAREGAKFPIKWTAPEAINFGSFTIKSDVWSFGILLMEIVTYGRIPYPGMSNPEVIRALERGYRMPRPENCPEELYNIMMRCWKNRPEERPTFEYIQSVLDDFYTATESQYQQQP
- Test summary: phosphorylation enrichment, bacterial display (enrichment ratio); higher = better substrate or ligand; peptides without Tyr show the background
Write no unit; give the number alone.

Completed entries (count: 10):
WKESWYSMRKM [FGB_Y475_G472E] ... 0.591
SMEGLYSSAQD [CLIC5_Y111_T114A] ... 3.19
SSPMKYQQNVS [EGFEM1P_Y160] ... 0.412
LSVMSYDLGMF [GBA3_Y174] ... 0.947
IRYPPYTDWNQ [ALDH3B2_Y365_H361R] ... 0.464
PELIDYGKLRK [ACTN1_Y193] ... 0.446
DALDNYVVRGV [PCCA_Y473_I475V] ... 0.394
THPFLYLSLEI [MLH1_Y293] ... 0.516
RRQDLYSARDL [SART1_Y249] ... 5.63
SASSSYSRSRS [SRRM4_Y549_R547S] ... 0.412

Please look at the following sequence next.
QUERY: Entry SIKDKYVTALC [KCNH2_Y611_Y616C] : reported phosphorylation enrichment = ?
RESULT: 0.362

----------
- Assay target: MERTK (UniProt Q12866)
- Sequence (Q12866 whole entry, looked up): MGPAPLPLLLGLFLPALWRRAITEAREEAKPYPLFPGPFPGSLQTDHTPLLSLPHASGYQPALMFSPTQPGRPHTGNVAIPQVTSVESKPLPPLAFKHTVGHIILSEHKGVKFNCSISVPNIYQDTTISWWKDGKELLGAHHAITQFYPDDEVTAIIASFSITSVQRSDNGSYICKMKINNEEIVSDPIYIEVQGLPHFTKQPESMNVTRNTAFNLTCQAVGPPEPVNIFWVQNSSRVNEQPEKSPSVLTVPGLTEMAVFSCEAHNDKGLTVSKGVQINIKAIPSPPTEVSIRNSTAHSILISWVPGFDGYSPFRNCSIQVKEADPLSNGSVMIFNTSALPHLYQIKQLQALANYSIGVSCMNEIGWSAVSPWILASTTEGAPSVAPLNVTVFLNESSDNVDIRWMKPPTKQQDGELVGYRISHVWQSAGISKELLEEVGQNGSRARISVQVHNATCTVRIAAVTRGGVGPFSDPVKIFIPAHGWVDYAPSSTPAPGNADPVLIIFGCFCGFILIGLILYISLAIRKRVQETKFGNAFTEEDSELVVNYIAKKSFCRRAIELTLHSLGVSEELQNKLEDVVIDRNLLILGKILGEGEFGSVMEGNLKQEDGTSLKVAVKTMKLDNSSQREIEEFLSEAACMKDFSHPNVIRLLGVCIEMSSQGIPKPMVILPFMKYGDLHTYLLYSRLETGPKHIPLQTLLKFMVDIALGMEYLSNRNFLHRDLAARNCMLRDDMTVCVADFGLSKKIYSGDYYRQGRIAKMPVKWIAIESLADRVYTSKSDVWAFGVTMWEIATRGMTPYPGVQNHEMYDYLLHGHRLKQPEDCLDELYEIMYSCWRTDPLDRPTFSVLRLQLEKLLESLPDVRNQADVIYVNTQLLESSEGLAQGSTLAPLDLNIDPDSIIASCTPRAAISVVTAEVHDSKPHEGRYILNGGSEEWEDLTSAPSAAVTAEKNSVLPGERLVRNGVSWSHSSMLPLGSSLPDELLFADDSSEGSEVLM
- Test summary: phosphorylation enrichment, bacterial display (enrichment ratio); higher = better substrate or ligand; peptides without Tyr show the background
Outcome measure: phosphorylation enrichment
Write no unit; give the number alone.

SDVSSYLEGQA [GCG_Y110] ... 0.432
PLDGEYSTLQI [TP53_Y327_F328S] ... 0.75
FADIAYNYRHA [PAH_Y166_G171A] ... 0.466
QTLEAYIRCNK [SPAST_Y604_W607C] ... 0.624
KHGGNYVPAPK [OSCP1_Y237] ... 0.439
LVSCTYQLATG [FGFR2_Y608_R612T] ... 0.546
LLNAIYLSAKR [SERPING1_Y294_W299R] ... 0.947
ETKKQYDSFTY [TMED3_Y85] ... 0.524

QUERY: Entry ATHSRYRLNDF [CLDN14_Y233_G232R_YF] : reported phosphorylation enrichment = ?
RESULT: 0.391

QUERY: Entry NDKLRYEVSSP [CDH13_Y66] : reported phosphorylation enrichment = ?
RESULT: 0.451

QUERY: Entry PPSGEYFGQCG [TRIP6_Y275] : reported phosphorylation enrichment = ?
RESULT: 0.573

QUERY: Entry HLITAYRAHGF [PDHA1_Y118] : reported phosphorylation enrichment = ?
RESULT: 0.369

QUERY: Entry SHGKQYRVPSD [HHIPL2_Y395_R394Q] : reported phosphorylation enrichment = ?
RESULT: 0.347

QUERY: Entry QGQHWYSSSDK [CASP10_Y9] : reported phosphorylation enrichment = ?
RESULT: 0.573
